// data source = the supplement of paper PMC7877785

# experiment: self-splicing fitness, log relative to wild type (ln ratio); higher = more splicing; Tetrahymena group I intron in knt gene, E. coli kanamycin selection, DiMSum; sequences stand for … in CUCUCU…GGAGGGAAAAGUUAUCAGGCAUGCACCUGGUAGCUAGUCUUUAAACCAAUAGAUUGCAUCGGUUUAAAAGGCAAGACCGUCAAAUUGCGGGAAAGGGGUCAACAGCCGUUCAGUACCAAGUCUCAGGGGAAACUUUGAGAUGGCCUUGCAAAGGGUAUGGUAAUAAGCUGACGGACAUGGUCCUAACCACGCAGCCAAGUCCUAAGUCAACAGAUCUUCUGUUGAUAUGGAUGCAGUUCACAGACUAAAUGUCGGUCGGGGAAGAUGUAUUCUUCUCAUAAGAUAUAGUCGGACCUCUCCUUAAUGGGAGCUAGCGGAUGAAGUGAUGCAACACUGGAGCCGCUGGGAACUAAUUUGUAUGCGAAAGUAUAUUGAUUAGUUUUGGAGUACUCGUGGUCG;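 also: selection with 25 µg/mL kanamycin versus none on LB agar overnight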
# condition: 37 °C
Kindly supply the reported self-splicing fitness (ln) values for the records listed here.
One number for each entry.

Example cases with answers are listed next.
CAAUAGCAAUAUUACGUAUA	-2.58
GAUGAGCAAUAUUACGAACU	-0.239
CACCAGCAAUAUUACGGGCU	-2.8
CGCUAGCAAUAUUACGGCUU	-0.559
AACCAGCAAUAUUACGCCGG	-2.09
GAUGAGCAAUAUUACGGCCU	-1.98
CACAAGCAAUAUUACGUGUC	-1.63
CAGAAGCAAUAUUACGCAAU	-2.79

Kindly give each listed record's self-splicing fitness (ln).
1. CGUUAGCAAUAUUACGAGCG
2. GCGCAGCAAUAUUACGUAGG
3. UCGAAGCAAUAUUACGAGUU
4. AAGCAGCAAUAUUACGAGCA
5. AAGGAGCAAUAUUACGUUUA
6. GAGCAGCAAUAUUACGGUCG

Reply text:
1. -2.63
2. -0.551
3. -2.04
4. -0.435
5. -1.66
6. -2.28

Provide each entry's self-splicing fitness (ln) from the list below.
1. CGGUAGCAAUAUUACGGGGA
2. UCGUAGCAAUAUUACGCGCG

Reply text:
1: -3.03; 2: -1.34

* * *

# experiment: self-splicing fitness, log relative to wild type (ln ratio); higher = more splicing; Tetrahymena group I intron in knt gene, E. coli kanamycin selection, DiMSum; sequences stand for … in CUCUCU…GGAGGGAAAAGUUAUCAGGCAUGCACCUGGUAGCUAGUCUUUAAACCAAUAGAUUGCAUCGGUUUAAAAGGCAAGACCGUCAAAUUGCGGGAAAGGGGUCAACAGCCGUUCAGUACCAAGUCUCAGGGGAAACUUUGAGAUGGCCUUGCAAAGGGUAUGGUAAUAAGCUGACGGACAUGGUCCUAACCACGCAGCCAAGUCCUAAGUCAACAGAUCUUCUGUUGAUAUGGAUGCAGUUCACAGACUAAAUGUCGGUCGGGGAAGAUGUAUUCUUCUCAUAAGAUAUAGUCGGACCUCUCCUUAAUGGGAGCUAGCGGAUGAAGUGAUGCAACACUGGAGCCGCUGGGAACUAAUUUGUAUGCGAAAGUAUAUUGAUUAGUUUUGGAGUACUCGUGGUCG
# condition: 30 °C
Task for the reader: assign each of the following sequences its reported self-splicing fitness (ln).
Numbers only.

Consider the following items and state reported self-splicing fitness (ln) for each.
1. ACGGAGCAAUAUUACGCGUG
2. CAUUAGCAAUAUUACGACCU
3. UGACAGCAAUAUUACGCAAC
4. GACGAGCAAUAUUACGUUAA
5. CUUCAGCAAUAUUACGUCUG
6. GGCUAGCAAUAUUACGUCUU
7. UUGCAGCAAUAUUACGCUUC

Reply text:
[-2.24, -1.77, -2.25, -3.77, -2.73, -0.274, -3.76]

For the 6 sequences below, give their self-splicing fitness (ln) values.
1. ACUGAGCAAUAUUACGUCCG
2. AGAAAGCAAUAUUACGGAGG
3. CGUGAGCAAUAUUACGGUAC
4. UUCGAGCAAUAUUACGUGGA
5. ACAAAGCAAUAUUACGCUAA
6. AGAAAGCAAUAUUACGACGG

Reply text:
[-2.79, -3.33, -3.78, -2.74, -2.51, -2.82]

* * *

# experiment: self-splicing fitness, log relative to wild type (ln ratio); higher = more splicing; Tetrahymena group I intron in knt gene, E. coli kanamycin selection, DiMSum; sequences stand for … in CUCUCU…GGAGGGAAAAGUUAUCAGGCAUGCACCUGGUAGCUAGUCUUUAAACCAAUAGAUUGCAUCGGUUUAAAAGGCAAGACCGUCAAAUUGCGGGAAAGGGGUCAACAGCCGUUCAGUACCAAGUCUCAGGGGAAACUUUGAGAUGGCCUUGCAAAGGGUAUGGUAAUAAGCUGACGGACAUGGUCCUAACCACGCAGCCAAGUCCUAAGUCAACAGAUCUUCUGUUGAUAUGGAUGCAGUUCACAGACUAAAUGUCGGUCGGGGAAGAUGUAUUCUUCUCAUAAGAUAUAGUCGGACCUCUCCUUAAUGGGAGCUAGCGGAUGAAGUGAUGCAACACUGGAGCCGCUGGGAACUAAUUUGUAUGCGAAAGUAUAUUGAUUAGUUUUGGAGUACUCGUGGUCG
# condition: 30 °C
property_label: self-splicing fitness (ln)

A selection of reference data follows.
CGUCAGCAAUAUUACGCCGG	-1.69
GCAUAGCAAUAUUACGAUCA	-2.05

Kindly give each listed record's self-splicing fitness (ln).
1. CCUCAGCAAUAUUACGUGUU
2. AGUAAGCAAUAUUACGAAUA
3. GGGUAGCAAUAUUACGCGUG
4. UCAUAGCAAUAUUACGCGCA
5. CGUGAGCAAUAUUACGCGGG
6. CCUUAGCAAUAUUACGACAG

Reply text:
1. -4.12
2. -1.84
3. -0.787
4. 0.0597
5. -1.74
6. -1.81

* * *

# experiment: self-splicing fitness, log relative to wild type (ln ratio); higher = more splicing; Tetrahymena group I intron in knt gene, E. coli kanamycin selection, DiMSum; sequences stand for … in CUCUCU…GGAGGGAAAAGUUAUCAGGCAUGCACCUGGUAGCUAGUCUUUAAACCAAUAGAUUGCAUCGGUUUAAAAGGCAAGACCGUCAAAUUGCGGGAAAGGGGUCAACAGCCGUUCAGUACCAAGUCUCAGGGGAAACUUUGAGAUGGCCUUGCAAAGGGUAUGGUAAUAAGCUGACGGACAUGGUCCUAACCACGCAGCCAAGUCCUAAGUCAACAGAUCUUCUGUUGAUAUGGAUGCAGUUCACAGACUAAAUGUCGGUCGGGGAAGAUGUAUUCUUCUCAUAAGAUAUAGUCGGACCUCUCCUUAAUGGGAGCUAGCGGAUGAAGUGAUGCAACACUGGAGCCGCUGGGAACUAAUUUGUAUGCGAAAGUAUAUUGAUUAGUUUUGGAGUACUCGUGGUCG
# condition: 37 °C
property_label: self-splicing fitness (ln)
Answers are plain numbers.

Below are worked cases with known answers.
AUGGAGCAAUAUUACGUAUG	-3.19
CACCAGCAAUAUUACGUGGC	-2.98
UUGCAGCAAUAUUACGGUAC	-0.374
AGCUAGCAAUAUUACGGACG	-0.105
AUGUAGCAAUAUUACGGUUA	-0.518

Below are some sequences; for each one, tell me its self-splicing fitness (ln).
1. UCUAAGCAAUAUUACGUCCA
2. UCGUAGCAAUAUUACGGUCA

Reply text:
1. -0.707
2. -0.0592

Inquiry: self-splicing fitness (ln) lookup needed for GUCAAGCAAUAUUACGUCUA , thanks.
Reply text: -0.679

* * *

# experiment: self-splicing fitness, log relative to wild type (ln ratio); higher = more splicing; Tetrahymena group I intron in knt gene, E. coli kanamycin selection, DiMSum; sequences stand for … in CUCUCU…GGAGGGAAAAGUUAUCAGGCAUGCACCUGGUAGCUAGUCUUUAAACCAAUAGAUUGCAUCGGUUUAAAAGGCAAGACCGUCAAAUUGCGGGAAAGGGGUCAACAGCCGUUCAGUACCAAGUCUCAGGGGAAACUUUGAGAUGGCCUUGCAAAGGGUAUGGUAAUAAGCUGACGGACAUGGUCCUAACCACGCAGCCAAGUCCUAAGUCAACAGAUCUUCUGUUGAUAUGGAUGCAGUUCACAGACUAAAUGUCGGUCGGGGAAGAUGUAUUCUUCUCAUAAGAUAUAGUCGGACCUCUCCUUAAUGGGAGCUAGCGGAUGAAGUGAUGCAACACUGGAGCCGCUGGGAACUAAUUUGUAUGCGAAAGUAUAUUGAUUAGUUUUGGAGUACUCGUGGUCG
# condition: 30 °C
Binary call on self-splicing fitness (ln): criterion met from -2 upward, criterion not met beneath that.

Inquiry: Exam item: decide whether the reported self-splicing fitness (ln) for CGAAAGCAAUAUUACGAAAC is at least -2.
Reply text: criterion not met

Inquiry: Please indicate if the recorded self-splicing fitness (ln) for AGAAAGCAAUAUUACGUACC meets or exceeds -2.
Reply text: criterion met

Inquiry: Exam item: decide whether the reported self-splicing fitness (ln) for UUACAGCAAUAUUACGCCCU is at least -2.
Reply text: criterion not met
